Reported Binding values follow for various molecules
Species on record: Homo sapiens
Assay: Compound was tested for human plasma protein binding
Assay type: cell-free
Number, no unit, nothing else.

Query Cc1cc(=O)c(Oc2ccc(Cl)cc2)c(-c2ccc(S(C)(=O)=O)cc2)o1 yields Binding of 98.2

Query Cc1cc(=O)c(Oc2ccc(F)cc2F)c(-c2ccc(S(C)(=O)=O)cc2)o1 yields Binding of 98.4

Query Cc1cc(=O)c(Oc2ccc(Cl)cc2F)c(-c2ccc(S(C)(=O)=O)cc2)o1 yields Binding of 97.5

Query Cc1cc(=O)c(Oc2ccc(Br)cc2F)c(-c2ccc(S(C)(=O)=O)cc2)o1 yields Binding of 93.9
